- Test system: HepG2
- Test name: GSK_TCMDC: Percent inhibition of human HepG2 cell line. Test compounds present at 10uM.
- Type: functional
Recorded endpoint: Inhibition (%)
Lab book: enter the figure in %, no units written.

Ask | Which Inhibition is reported with HepG2 for this entry: COc1ccc(-c2ccc(NC(=O)c3cccc(C#N)c3)cc2)cc1CN1CCNCC1.O=C(O)C(F)(F)F ?
Reply | 30

Ask | Fill in the recorded Inhibition for this molecule, with HepG2 as test system: Cc1cccc(CNc2nc(C)cc(NCCC(=O)Nc3ccccc3)n2)c1.O=C(O)C(F)(F)F
Reply | 15

Ask | Give Inhibition (HepG2) of the following molecule: Cc1ccc(C)c2sc(N(CCCn3ccnc3)C(=O)c3ccco3)nc12.Cl
Reply | 28

Ask | Lab request: please report Inhibition under test system HepG2 for CCCCNC(=O)C(C)NC(=O)c1ccc(O)c(-c2ccc(Cl)c(Cl)c2)c1 (stereo unspecified)
Reply | 0

Ask | Fill in the recorded Inhibition for this molecule, with HepG2 as test system: O=C(Nc1ccc(-c2ccccc2)cc1)Nc1ccc2c(c1)CCNCC2.O=C(O)C(F)(F)F
Reply | 41

Ask | Recall the recorded Inhibition for Cc1cc(C(=O)Nc2ccc3c(c2)CCN3C2CCN(Cc3cc(F)cc(F)c3F)C2)no1 (stereo unspecified) with HepG2 and state it.
Reply | 0
